# target.under.test: Nociceptin receptor (Homo sapiens, UniProt P41146)
# Sequence (P41146 whole entry): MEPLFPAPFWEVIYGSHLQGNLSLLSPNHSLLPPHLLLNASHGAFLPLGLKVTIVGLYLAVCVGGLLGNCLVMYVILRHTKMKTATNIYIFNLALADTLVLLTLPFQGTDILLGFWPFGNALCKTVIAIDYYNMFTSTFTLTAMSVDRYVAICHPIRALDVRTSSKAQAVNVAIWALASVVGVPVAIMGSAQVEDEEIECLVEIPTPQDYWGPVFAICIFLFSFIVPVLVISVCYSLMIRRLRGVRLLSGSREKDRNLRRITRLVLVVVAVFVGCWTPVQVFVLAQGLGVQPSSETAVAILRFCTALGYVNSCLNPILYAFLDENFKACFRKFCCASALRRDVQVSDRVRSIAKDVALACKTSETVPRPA
# test.method.notes: Displacement of [125I]Tyr14-NC/OFQ from ORL1 receptor
pIC50: −log10 of the molar value.
property.label: pIC50

[a] CCN1CCN(c2cc3[nH]c(C(=O)[C@]4(C)CC[C@@H](NC(=O)OC)CC4)nc3cc2Cl)CC1
[b] CCN1CCN(c2cc3[nH]c(C(=O)C4(C)CCC(=O)CC4)nc3cc2Cl)CC1
[c] CCN1CCN(c2cc3[nH]c(C(=O)[C@]4(CC)CC[C@@](C)(O)CC4)nc3cc2Cl)CC1
[d] CCN1CCN(c2cc3[nH]c(C(=O)[C@]4(C)CC[C@@H](NC(=O)OC)CC4)nc3cc2C)CC1
[e] CCN1CCN(c2cc3[nH]c(C(=O)[C@]4(C)CC[C@](C)(O)CC4)nc3cc2Cl)CC1
Data request: Rank the listed compounds by pIC50, largest first. Reply: labels, ordered per the request.
Data returned: c, d, a, b, e

---

# test.method.notes: Distribution coefficient, log D at pH 7.4 by shake flask method
# Assay type: physicochemical
# test.settings: octanol/water
property.label: logD

CCN1CCN(c2cc3[nH]c(C(=O)[C@]4(C)CC[C@@H](NC(=O)OC)CC4)nc3cc2Cl)CC1: 3.7
CCN1CCN(c2cc3[nH]c(C(=O)C4(C)CCC(=O)CC4)nc3cc2Cl)CC1: 3
CCN1CCN(c2cc3[nH]c(C(=O)[C@]4(C)CC[C@@H](NC(=O)OC)CC4)nc3cc2C)CC1: 3.1
CCN1CCN(c2cc3[nH]c(C(=O)[C@]4(C)CC[C@@](C)(O)CC4)nc3cc2Cl)CC1: 3.1
CCN1CCN(c2cc3[nH]c(C(=O)[C@]4(CC)CC[C@@](C)(O)CC4)nc3cc2Cl)CC1: 3.6

---

# target.under.test: Nociceptin receptor (Homo sapiens)
# test.method.notes: Antagonist activity against ORL1 receptor by [S35]GTPgammaS binding
# Format: functional
property.label: IC50 (nM)

Worked examples, 3 compounds total:
CCN1CCN(c2cc3[nH]c(C(=O)[C@]4(CC)CC[C@@](C)(O)CC4)nc3cc2Cl)CC1: 2.4
CCN1CCN(c2cc3[nH]c(C(=O)C4(C)CCC(=O)CC4)nc3cc2Cl)CC1: 38
CCN1CCN(c2cc3[nH]c(C(=O)[C@]4(C)CC[C@@H](NC(=O)OC)CC4)nc3cc2C)CC1: 5.3

[a] CCN1CCN(c2cc3[nH]c(C(=O)[C@]4(C)CC[C@@H](NC(=O)OC)CC4)nc3cc2Cl)CC1
[b] CCN1CCN(c2cc3[nH]c(C(=O)[C@]4(C)CC[C@@](C)(O)CC4)nc3cc2Cl)CC1
Data request: Could you point out whether the larger IC50 belongs to a or to b ? When you have decided, please share the label of that item.
Data returned: a

---

# test.method.notes: Ratio of drug level in mouse brain to plasma at 30 mg/kg, po after 1 hr
# Format: ADME, organism-based
# Design: dose 30 mg/kg, route oral
property.label: Kp at 1 h

[a] CCN1CCN(c2cc3[nH]c(S[C@]4(C)CC[C@@H](NC(=O)OC)CC4)nc3cc2Cl)CC1
[b] CCN1CCN(c2cc3[nH]c(S[C@]4(C)CC[C@@H](N(C)C(C)=O)CC4)nc3cc2Cl)CC1
Data request: Could you point out whether the larger Kp at 1 h belongs to a or to b ? When you have decided, please share the label of that item.
Data returned: b

Origin of the recorded values: ChEMBL document CHEMBL1136869
